Provide the recorded pKi for the entries that follow.
Target: Prostaglandin E2 receptor EP1 subtype (Mus musculus)
Sequence (P35375 whole entry): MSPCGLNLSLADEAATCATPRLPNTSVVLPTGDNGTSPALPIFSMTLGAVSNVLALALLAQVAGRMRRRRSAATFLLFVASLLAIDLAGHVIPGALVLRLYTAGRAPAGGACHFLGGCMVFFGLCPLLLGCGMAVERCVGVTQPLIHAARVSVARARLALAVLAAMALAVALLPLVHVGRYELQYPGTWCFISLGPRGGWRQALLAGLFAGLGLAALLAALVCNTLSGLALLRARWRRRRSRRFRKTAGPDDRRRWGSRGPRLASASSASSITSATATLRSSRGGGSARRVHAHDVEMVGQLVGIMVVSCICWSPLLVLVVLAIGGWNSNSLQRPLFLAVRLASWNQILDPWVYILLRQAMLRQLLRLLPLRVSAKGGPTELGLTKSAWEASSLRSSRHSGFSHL
Experiment: Binding affinity towards mouse Prostanoid EP1 receptor in CHO cells.
pKi: −log10 of the molar value.

compound=CCCC1([C@@H](O)C/C=C/[C@H]2[C@H](O)CC(=O)[C@@H]2C/C=C\CCCC(=O)O)CCCC1 experimental_readout=pKi endpoint_value="< 5.00"

For each listed entry, give its pKi.
1. CCCC1([C@@H](O)C/C=C/C2[C@H](O)CC(=O)[C@@H]2CCc2ccc(C(=O)O)cc2)CCC1 (some centres undefined)
2. CCC1([C@@H](O)C/C=C/[C@@H]2[C@@H](C/C=C\CCCC(=O)O)[C@@H](Cl)C[C@H]2O)CCC1
3. CCCCCC(O)/C=C/[C@H]1[C@H](O)CC(=O)[C@@H]1CCCCCCC(=O)O (single isomer, unassigned) [ALPROSTADIL]
4. CCCC1([C@@H](O)C/C=C/C2[C@H](O)CC(=O)[C@@H]2CC#CCCCC(=O)O)CCC1 (some centres undefined)
5. CCCCCC1([C@@H](O)C/C=C/[C@H]2[C@H](O)CC(=O)[C@@H]2C/C=C\CCCC(=O)O)CCC1

A:
1: < 5.00; 2: < 5.00; 3: 7.00; 4: < 5.00; 5: 5.80

Look at each compound and report its pKi.
1. CCCC1([C@@H](O)C/C=C/C2[C@H](O)CC(=O)[C@@H]2C/C=C/CCCC(=O)O)CCC1 (some centres undefined)
2. CCCC1([C@@H](O)C/C=C/C2[C@H](O)CC(=O)[C@@H]2CCCCCCC(=O)O)CCC1 (some centres undefined)
3. CCCC1([C@@H](O)C/C=C/[C@H]2[C@H](O)CC(=O)[C@@H]2C/C=C\CCCC(=O)O)CCC1

A:
< 5.00
< 5.00
< 5.00

---

Give EC50 for every item shown.
Target: Prostaglandin E2 receptor EP2 subtype (Mus musculus, UniProt Q62053)
Sequence (Q62053 whole entry): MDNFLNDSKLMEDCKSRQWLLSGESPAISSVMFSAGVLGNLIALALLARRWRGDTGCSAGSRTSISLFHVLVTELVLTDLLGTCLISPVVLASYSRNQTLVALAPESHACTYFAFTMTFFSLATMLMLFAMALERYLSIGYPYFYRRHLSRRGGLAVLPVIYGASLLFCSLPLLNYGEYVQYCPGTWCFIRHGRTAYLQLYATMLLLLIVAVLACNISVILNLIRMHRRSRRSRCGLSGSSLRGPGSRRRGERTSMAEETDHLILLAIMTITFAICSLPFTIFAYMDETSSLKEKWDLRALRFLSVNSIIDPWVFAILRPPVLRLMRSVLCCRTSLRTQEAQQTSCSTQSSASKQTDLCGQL
Assay: Effective concentration which increases intracellular c-AMP production in mouse Prostanoid EP2 receptor
Assay type: functional, cell-based
Numbers only, in nM.

molecule=CCCCC[C@@H](O)/C=C/[C@H]1[C@H](O)CC(=O)[C@@H]1C/C=C\CCCC(=O)O readout_units=nM endpoint_value=2.1
molecule=CCC1([C@@H](O)C/C=C/[C@@H]2[C@@H](C/C=C\CCCC(=O)O)[C@H](Cl)C[C@H]2O)CCC1 readout_units=nM endpoint_value=2.8
molecule="CCCCCC(O)/C=C/[C@H]1[C@H](O)CC(=O)[C@@H]1CCCCCCC(=O)O (single isomer, unassigned)" readout_units=nM endpoint_value=2.6

Could you now consider this next molecule?
Q: // fetch Prostaglandin E2 receptor EP2 subtype (Mus musculus, UniProt Q62053) EC50 for `CCC1([C@@H](O)C/C=C/[C@H]2[C@H](O)CC(=O)[C@@H]2C/C=C\CCCC(=O)O)CCC1`
A: 11

---

Give Ki for every item shown.
Biological target: Prostaglandin E2 receptor EP2 subtype (Mus musculus, UniProt Q62053)
Test: Binding affinity towards mouse Prostanoid EP2 receptor expressed in CHO cells.
Format: cell-based
Numbers only, in nM.

Dear reader, for each entry below, please note its Ki.
1. CCCC1([C@@H](O)C/C=C/[C@H]2[C@H](O)CC(=O)[C@@H]2C/C=C\CCCC(=O)O)CCCCC1
2. CCCC1([C@@H](O)C/C=C/[C@H]2[C@H](O)CC(=O)[C@@H]2C/C=C\CCCC(=O)O)CCC1
3. CCCCC[C@@H](O)/C=C/[C@H]1[C@H](O)CC(=O)[C@@H]1C/C=C\CCCC(=O)O

A:
[3300, 330, 38]

For each listed entry, give its Ki.
1. CC(C)CC1([C@@H](O)C/C=C/[C@H]2[C@H](O)CC(=O)[C@@H]2C/C=C\CCCC(=O)O)CCC1
2. CCCC1([C@@H](O)C/C=C/C2[C@H](O)CC(=O)[C@@H]2CCCCCCC(=O)O)CCC1 (stereo partly drawn)
3. CCC1([C@@H](O)C/C=C/[C@@H]2[C@@H](C/C=C\CCCC(=O)O)CC[C@H]2O)CCC1
4. CCCCCC1([C@@H](O)C/C=C/[C@H]2[C@H](O)CC(=O)[C@@H]2C/C=C\CCCC(=O)O)CCC1

A:
40
73
11
20

Q: Form field: reported Ki of CCCC1([C@@H](O)C/C=C/C2[C@H](O)CC(=O)[C@@H]2CC#CCCCC(=O)O)CCC1 (stereo partly drawn)
A: 1100

Source listed as ChEMBL document CHEMBL1133892.
